Just for reference, PubChem BioAssay (NCATS) is where these values come from.

Measured Potency by item
# Subject of test: Glucocorticoid receptor (Homo sapiens) (UniProt P04150)
# Sequence (P04150 whole entry, looked up): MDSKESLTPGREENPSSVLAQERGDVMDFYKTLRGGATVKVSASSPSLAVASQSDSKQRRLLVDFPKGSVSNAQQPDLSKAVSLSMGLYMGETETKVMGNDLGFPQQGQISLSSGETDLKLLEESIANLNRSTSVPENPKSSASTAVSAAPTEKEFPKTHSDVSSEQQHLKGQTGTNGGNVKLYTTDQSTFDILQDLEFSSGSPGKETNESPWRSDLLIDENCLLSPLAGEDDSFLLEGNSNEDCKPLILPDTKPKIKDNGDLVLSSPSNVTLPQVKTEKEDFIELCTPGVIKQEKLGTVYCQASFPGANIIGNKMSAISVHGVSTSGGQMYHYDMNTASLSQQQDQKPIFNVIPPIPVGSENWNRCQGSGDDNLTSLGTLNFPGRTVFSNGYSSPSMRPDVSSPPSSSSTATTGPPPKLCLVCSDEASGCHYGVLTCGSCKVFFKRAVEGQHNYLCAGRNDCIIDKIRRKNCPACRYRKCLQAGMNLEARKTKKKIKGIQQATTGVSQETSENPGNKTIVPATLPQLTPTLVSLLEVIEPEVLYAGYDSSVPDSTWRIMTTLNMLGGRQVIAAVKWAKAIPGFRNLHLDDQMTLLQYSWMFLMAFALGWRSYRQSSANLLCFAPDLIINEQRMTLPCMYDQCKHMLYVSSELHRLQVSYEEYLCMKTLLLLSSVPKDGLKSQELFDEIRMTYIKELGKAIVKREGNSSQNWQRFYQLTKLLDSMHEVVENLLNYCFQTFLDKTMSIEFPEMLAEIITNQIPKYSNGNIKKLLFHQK
# Test protocol: GR-GFP Redistribution (AID 450); further: potency means the concentration at half of the fitted maximal effect
# Condition summary: U2OS GR-GFP nuclear translocation, laser cytometry, 2 h
Active and inactive are the calls of the source.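 How the source made its calls: active means compounds whose dose series gives a full or clear partial fitted curve of increased nuclear translocation; inconclusive means weak partial curve or effect only at the top dose; inactive means no dose-dependent translocation response.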

Completed entries (count: 10):
> print(dat)
                                    molecule                result
 1  COc1ccc2c3c1OC1C[C@@H](O)C=C[C@@]31CCN(C)C2 (some centres not stated)  > 20.6 µM (inactive)
 2  CS(=O)c1ccc(-c2nc(-c3ccc(F)cc3)c(-c3ccncc3)[nH]2)cc1 (configuration not stated)    > 46 µM (inactive)
 3         O=c1c(-c2ccc(O)cc2)coc2cc(O)ccc12    > 46 µM (inactive)
 4         CCCCCCCCCCCC1=C(O)C(=O)C=C(O)C1=O    > 46 µM (inactive)
 5  O=C(O)c1cc(O)c2c(c1)C(=O)c1cccc(O)c1C2=O  > 20.6 µM (inactive)
 6          COc1cccc(-c2cc(=O)c3ccccc3o2)c1N    > 46 µM (inactive)
 7  CC(C)NCC(O)COc1cccc2[nH]ccc12 (configuration not stated)  > 20.6 µM (inactive)
 8          COc1ccc(-c2coc3cc(O)ccc3c2=O)cc1    > 46 µM (inactive)
 9  CC(C)[C@H](CO)Nc1nc(Nc2ccc(C(=O)O)c(Cl)c2)c2ncn(C(C)C)c2n1    > 46 µM (inactive)
10  C[C@@H](O)[C@H]1C(=O)N2C(C(=O)O)=C(S[C@@H]3CN[C@H](C(=O)N(C)C)C3)[C@H](C)[C@H]12  > 20.6 µM (inactive)

Request: Hi! What's the reported Potency for CC(C(=O)O)c1ccc(-c2ccccc2)c(F)c1 (configuration not stated) on Glucocorticoid receptor (Homo sapiens) (UniProt P04150)?
Result: > 20.6 µM (inactive)

Request: API: value(readout=Potency, system=Glucocorticoid receptor (Homo sapiens) (UniProt P04150)) for record `O=c1cc(-c2ccccc2)oc2cc(O)cc(O)c12`
Result: > 20.6 µM (inactive)

###

# Test protocol: qHTS profiling of the MIPE4 collection as inhibitors of Plasmodium falciparum (HB3) proliferation (AID 743347)
# Condition summary: P. falciparum HB3 in erythrocytes, SYBR Green DNA, 72 h; at 28.5 µM (top of the series) unless noted
# Method: Plasmodium falciparum is a virulent malarial parasite that kills 1-2 million people worldwide each year. […] Because mature erythrocytes lack DNA, only Plasmodium-derived DNA is detected. The SYBR Green viability assay was adapted from a method described previously (Plouffe et al., 2008). […] The following morning, fluorescence intensity at 485(14) nm excitation and 535(25) nm emission wavelengths was measured on an EnVision (Perkin Elmer) plate reader. […]
Mark yes only for growth, % of control values smaller than 50%; exact matches and larger values are no.

Consider the worked cases shown below.
Mol	Classification
CO[C@H]1C[C@@H]2CC[C@@H](C)[C@@](O)(O2)C(=O)C(=O)N2CCCC[C@@H]2C(=O)O[C@H]([C@H](C)C[C@@H]2CC[C@H](OP(C)(C)=O)[C@H](OC)C2)CC(=O)[C@H](C)C=C(C)[C@@H](O)[C@@H](OC)C(=O)[C@H](C)C[C@H](C)C=CC=CC=C1C	yes
CC(C)OC(=O)CCCC=CC[C@@H]1[C@H](C=C[C@@H](O)COc2cccc(C(F)(F)F)c2)[C@H](O)C[C@@H]1O	yes
CC(C)C(=O)Oc1ccc(CO)cc1[C@H](CCN(C(C)C)C(C)C)c1ccccc1	yes
Cc1ccc([C@@H]2O[C@H](CO)[C@@H](O)[C@H](O)[C@@H]2O)cc1Cc1ccc(-c2ccc(F)cc2)s1	no

Kindly review the next molecule as well.
Request: Does the reported growth, % of control of the following molecule sit strictly below 50%? `N[C@@]1(C(=O)O)CS(=O)(=O)[C@H]2[C@H](C(=O)O)[C@H]21`
Result: no
